Assay: Approximate solubility screen of Compound I in different solvents
Assay type: physicochemical
Conditions: organic solvent or mixture, thermodynamic from solid; Acetone; 1.8 mg, 5.75 mL, heating to 55° C.
result type: solubility

Given the entry CCS(=O)(=O)c1cccc(-c2cc(C(=O)NC3CCN(C)CC3)c(C)c3[nH]c4ncc(C)cc4c23)c1 , report its measured solubility.
< 330 µg/mL

====

Experiment: Solubility study of Form A in de-ionized water and 20 mM phosphate buffer at pH 3.2 (HPLC, XRPD of solids)
Assay type: physicochemical
Conditions: pH 3.2, aqueous buffer, thermodynamic from solid; Phosphate buffer (20 mM), pH (initial) 3.2, ambient temperature; read-out: Solubility mg/mL (1 day)
result type: solubility at 1 day

Given the entry CCS(=O)(=O)c1cccc(-c2cc(C(=O)NC3CCN(C)CC3)c(C)c3[nH]c4ncc(C)cc4c23)c1 [Compound I Form A] , report its measured solubility at 1 day.
< 0.1 mg/mL
